protocol: ATG_XTT_Cytotoxicity: Cytotoxicity Assessment in the Attagene TRANS-FACTORIAL HepG2 Assay (AID 2283584)
Records with an inconclusive call do not appear. Activity calls are given as the source filed them. How the source made its calls: active means hit-call score of the fitted dose curve at least 0.9, where 1 is the maximum; inconclusive means response in the unintended direction; inactive means score below 0.9.
recordedMetric: outcome

INSERT INTO results (compound, observed) VALUES
  ('Sc1nc2ccccc2s1', 'inactive'),
  ('C=CC(C)(CCC=C(C)C)OC(=O)c1ccccc1 (stereo not given)', 'inactive'),
  ('N#CCN(CC#N)CCN(CC#N)CC#N', 'inactive'),
  ('COC(=O)c1ccccc1', 'inactive'),
  ('Cc1ccnc(N)c1', 'inactive'),
  ('CC1=CCCC(C)(C)C12CCC(C)O2 (stereo not given)', 'inactive'),
  ('O=C(OCc1ccccc1)c1ccccc1', 'inactive'),
  ('CC(C)CC(=O)CC(C)C', 'inactive'),
  ('COc1cccc(OC)c1C(=O)O', 'inactive'),
  ('O=C(CC(C(=O)OC1CCCCC1)S(=O)(=O)O)OC1CCCCC1 (stereo not given)', 'inactive'),
  ('CNC[C@H](O)[C@@H](O)[C@H](O)[C@H](O)CO', 'inactive'),
  ('O=C(C(=O)c1ccccc1)c1ccccc1', 'inactive'),
  ('CC(=O)OC(C)(C)Cc1ccccc1', 'inactive'),
  ('Clc1ccc(Sc2cc(Cl)c(Cl)cc2Cl)cc1', 'inactive'),
  ('OCCN(CCO)c1cccc(Cl)c1', 'inactive');

----------
targetOrSystem: PGR (gene 5241) (UniProt P06401)
Sequence (P06401 whole entry, looked up): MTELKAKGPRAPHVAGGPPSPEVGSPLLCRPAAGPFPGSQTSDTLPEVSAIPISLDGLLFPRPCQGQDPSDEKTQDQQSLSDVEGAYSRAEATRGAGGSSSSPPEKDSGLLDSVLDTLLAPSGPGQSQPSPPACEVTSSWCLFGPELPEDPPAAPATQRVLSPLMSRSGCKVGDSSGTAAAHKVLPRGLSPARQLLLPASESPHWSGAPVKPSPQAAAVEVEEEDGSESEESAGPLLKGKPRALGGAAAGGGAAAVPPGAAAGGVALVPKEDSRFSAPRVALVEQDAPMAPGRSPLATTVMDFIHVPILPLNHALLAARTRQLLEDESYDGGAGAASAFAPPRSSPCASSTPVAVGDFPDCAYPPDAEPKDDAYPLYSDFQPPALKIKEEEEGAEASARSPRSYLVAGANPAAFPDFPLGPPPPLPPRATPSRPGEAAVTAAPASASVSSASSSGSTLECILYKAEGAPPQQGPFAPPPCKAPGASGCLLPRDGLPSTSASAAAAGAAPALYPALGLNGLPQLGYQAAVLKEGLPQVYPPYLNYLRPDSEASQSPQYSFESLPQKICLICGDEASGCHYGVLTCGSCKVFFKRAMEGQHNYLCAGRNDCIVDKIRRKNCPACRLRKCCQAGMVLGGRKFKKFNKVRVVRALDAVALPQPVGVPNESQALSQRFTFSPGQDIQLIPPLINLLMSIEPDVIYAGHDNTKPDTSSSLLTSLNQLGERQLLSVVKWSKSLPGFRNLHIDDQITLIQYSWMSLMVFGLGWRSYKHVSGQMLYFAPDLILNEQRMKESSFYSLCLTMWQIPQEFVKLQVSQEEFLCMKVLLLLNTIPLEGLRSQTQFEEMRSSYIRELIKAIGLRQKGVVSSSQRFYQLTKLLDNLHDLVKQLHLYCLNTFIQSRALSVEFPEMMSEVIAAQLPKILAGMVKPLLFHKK
protocol: TOX21_PR_BLA_Followup_Antagonist_ratio: Tox21 HEK293 Progesterone Receptor (PR) Antagonism Beta-lactamase Follow-Up Assay, Ratio (AID 2283934);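 further: PR-UAS-bla HEK293T cells stimulated with 1 nM R5020 agonist for 16 hr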
The source made the active and inactive calls. How the source made its calls: active means hit-call score of the fitted dose curve at least 0.9, where 1 is the maximum; inconclusive means response in the unintended direction; inactive means score below 0.9.
Labels: active, inactive

INSERT INTO assay_data (compound, classlabel) VALUES
  ('C[C@@H]1C[C@H]2[C@@H]3C[C@H](F)C4=CC(=O)C(Cl)=C[C@]4(C)[C@@]3(F)[C@@H](O)C[C@]2(C)[C@@]1(O)C(=O)CO', 'inactive'),
  ('O=S(=O)(Oc1ccc(Cl)cc1)c1ccccc1', 'active'),
  ('CC(=O)OCC(=O)[C@@]1(O)CC[C@H]2[C@@H]3CCC4=CC(=O)C=C[C@]4(C)[C@@]3(F)[C@@H](O)C[C@@]21C', 'inactive'),
  ('CC(=O)Oc1ccc2c(c1)CC[C@@H]1[C@@H]2CC[C@]2(C)[C@@H](O)CC[C@@H]12', 'active'),
  ('COCCOC(=O)C1=C(C)NC(C)=C(C(=O)OC/C=C/c2ccccc2)C1c1cccc([N+](=O)[O-])c1 (stereo not drawn)', 'active'),
  ('COC(=O)C1=C(C)NC(C)=C(C(=O)OCCN2CCN(C(c3ccccc3)c3ccccc3)CC2)C1c1cccc([N+](=O)[O-])c1 (stereo not drawn)', 'inactive'),
  ('CC(=O)OCC(=O)[C@@]1(OC(C)=O)[C@@H](C)C[C@H]2[C@@H]3C[C@H](F)C4=CC(=O)C=C[C@]4(C)[C@@]3(F)[C@@H](O)C[C@@]21C', 'inactive'),
  ('NC(=O)n1c(O)c(C(=O)c2cccs2)c2cc(Cl)ccc21', 'inactive');

----------
targetOrSystem: Transcription factor E2F1 (Homo sapiens)
protocol: ATG_E2F_CIS: Attagene CIS-FACTORIAL HepG2 Assay for human E2F Transcription Factor 1 (AID 2282935)
testParameters: HepG2 Attagene cis-reporter, E2F reporter RNA transcripts; actives raise or lower the signal
Protocol: ATG_CIS is a cell-based, multiplexed-readout assay that uses HepG2, a human liver cell line, with measurements taken at 24 hours after chemical dosing in a 24-well plate.ATG_E2F_CIS is one of 52 assay component(s) measured or calculated from the ATG_CIS assay. […] This assay endpoint, ATG_E2F_CIS, was analyzed with bidirectional fitting relative to DMSO as the negative control and baseline of activity. […]
Active and inactive are the calls of the source. Rule for the calls: active = hit-call score of the fitted dose curve at least 0.9, where 1 is the maximum; inactive = score below 0.9.
Labels: true for active, false for inactive

INSERT INTO assay_data (molecule, classlabel) VALUES
  ('Oc1cccc2ccccc12', 'false'),
  ('CCCCCC1CCCC(=O)O1 (centres undefined)', 'false'),
  ('O=C(O)/C=C\C(=O)O', 'false'),
  ('O=C1NC(=O)[C@@H]2CC=CC[C@H]12', 'false'),
  ('CCCCCCCCCCCCCCCCCC[N+](C)(C)C', 'false'),
  ('CC(C)(Oc1ccc(Cl)cc1)C(=O)O', 'false'),
  ('CCCCCCOC(=O)CCCCCCCC(=O)OCCCCCC', 'false'),
  ('CCCCCCC1CCCC(=O)O1 (centres undefined)', 'false'),
  ('CC/C=C\CC1=C(C)CCC1=O', 'false'),
  ('CCCCCC[C@@H](O)C/C=C\CCCCCCCC(=O)O', 'true'),
  ('CC(=O)Nc1c(I)c(NC(C)=O)c(I)c(C(=O)O)c1I', 'false'),
  ('CCC(=O)OCc1ccc(OC)cc1', 'false'),
  ('O=C(Oc1ccccc1)c1ccccc1', 'false'),
  ('COC(=O)/C=C\C(=O)OC', 'false'),
  ('Nc1ccc(S(=O)(=O)Nc2cnc3ccccc3n2)cc1', 'false'),
  ('CCCCCCCCCCCCCC', 'false'),
  ('C=C(C)C(=O)OCC1CCCO1 (centres undefined)', 'false'),
  ('CCCC(=O)OC/C=C(\C)CCC=C(C)C', 'false'),
  ('CC1=CCCC(C)(C)C12CCC(C)O2 (centres undefined)', 'false'),
  ('NC(=O)c1ccc(N)cc1', 'false'),
  ('CCCc1c(OCCCCc2nn[nH]n2)ccc(C(C)=O)c1O', 'false'),
  ('C/C=C(\C)C(=O)OCC/C=C\CC', 'false'),
  ('C=CCOCC(CC)(CO)COCC=C', 'false'),
  ('CC1(C)S[C@@H]2[C@H](NC(=O)[C@H](N)c3ccccc3)C(=O)N2[C@H]1C(=O)O', 'false'),
  ('N#CCN(CC#N)CCN(CC#N)CC#N', 'false'),
  ('CC(C)CC(=O)O', 'false'),
  ('CC/C=C\CCO', 'false'),
  ('CN(C)CCC(c1ccc(Cl)cc1)c1ccccn1 (centres undefined)', 'false'),
  ('CC[N+](CC)(CC(=O)Nc1c(C)cccc1C)Cc1ccccc1 (tested in a mixture with another compound)', 'false');
